Assayed Target: b-Raf(V600E) (Homo sapiens, UniProt P15056, V600E)
Construct: made in house
Sequence (P15056 whole entry V600E): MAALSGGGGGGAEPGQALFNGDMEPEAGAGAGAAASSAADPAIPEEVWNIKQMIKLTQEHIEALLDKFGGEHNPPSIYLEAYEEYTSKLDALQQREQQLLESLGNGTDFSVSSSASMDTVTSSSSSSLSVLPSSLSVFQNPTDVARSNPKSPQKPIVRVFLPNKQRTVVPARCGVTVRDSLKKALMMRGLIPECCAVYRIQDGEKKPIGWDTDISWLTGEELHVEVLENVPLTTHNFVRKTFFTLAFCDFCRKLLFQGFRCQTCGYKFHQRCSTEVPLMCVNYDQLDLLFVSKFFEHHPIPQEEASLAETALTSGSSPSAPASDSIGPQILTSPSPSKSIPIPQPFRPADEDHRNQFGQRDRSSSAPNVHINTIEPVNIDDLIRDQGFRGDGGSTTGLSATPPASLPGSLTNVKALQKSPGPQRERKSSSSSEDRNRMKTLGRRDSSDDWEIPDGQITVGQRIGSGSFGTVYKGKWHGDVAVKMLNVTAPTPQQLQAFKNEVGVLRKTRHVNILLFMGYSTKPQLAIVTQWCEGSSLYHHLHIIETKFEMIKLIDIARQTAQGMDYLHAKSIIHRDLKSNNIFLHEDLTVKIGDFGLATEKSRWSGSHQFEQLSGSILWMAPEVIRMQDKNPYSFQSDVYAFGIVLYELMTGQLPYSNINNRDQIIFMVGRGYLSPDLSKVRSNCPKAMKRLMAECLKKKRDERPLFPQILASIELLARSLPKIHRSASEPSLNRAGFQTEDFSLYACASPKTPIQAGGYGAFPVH
Assay Name: Raf/Mek Amplified Luminescence Proximity Homogeneous Assay (Alpha Screen), b-Raf(V600E)
Assay type: biochemical
Protocol Conditions: mutant b-Raf(V600E), read-out: mut-b-RAF (IC50 in uM)
Readout: IC50 (µM)
# output: bare number, implied unit µM

In the examples that follow, each entry is paired with its recorded IC50.
{"Structure Smiles String": "COc1cc(-c2nc(C(C)(C)C)[nH]c2-c2ccncc2)cnc1N", "Readout": "IC50", "Unit Info": "µM", "Readout Number": 0.001}
{"Structure Smiles String": "COc1cc(-c2[nH]c(-c3ccc(C)c(F)c3)nc2-c2ccncc2)cnc1N", "Readout": "IC50", "Unit Info": "µM", "Readout Number": 0.0007}
{"Structure Smiles String": "COc1cc(-c2sc(-c3ccccc3)nc2-c2ccncc2)cnc1N", "Readout": "IC50", "Unit Info": "µM", "Readout Number": 0.0019}
{"Structure Smiles String": "COc1cc(-c2[nH]c(-c3ccc(F)cc3)nc2-c2cncs2)cnc1N", "Readout": "IC50", "Unit Info": "µM", "Readout Number": 0.0365}
{"Structure Smiles String": "COc1cc(-c2nc(C3=CCCCC3)[nH]c2-c2ccncc2)cnc1N", "Readout": "IC50", "Unit Info": "µM", "Readout Number": 0.0026}
{"Structure Smiles String": "COc1cc(-c2[nH]c(-c3ccc(F)cc3)nc2-c2ccncc2F)cnc1N", "Readout": "IC50", "Unit Info": "µM", "Readout Number": 0.0038}
{"Structure Smiles String": "COc1cc(-c2nc(C(C)(C)C)[nH]c2-c2ccnc(NC[C@H](C)O)n2)cnc1N", "Readout": "IC50", "Unit Info": "µM", "Readout Number": 0.0003}
{"Structure Smiles String": "CCc1nc(-c2cnc(N)c(OC)c2)c(-c2ccnc(Nc3ccnc(OC)c3)n2)[nH]1", "Readout": "IC50", "Unit Info": "µM", "Readout Number": 0.0004}

### Prompt Name the recorded IC50 of the compound listed here: `COc1cc(-c2[nH]c(-c3cccc(C(C)C)c3)nc2-c2ccncc2)cnc1N`
### Response 0.003

### Prompt Output measured IC50 for this item: `COc1cc(-c2[nH]c(C(C)(C)C)nc2-c2ccnc(N[C@@H](C)CNC(=O)[C@@H](C)OC)n2)cnc1N`
### Response 0.0014

### Prompt Name the recorded IC50 of the compound listed here: `COc1cc(-c2nc(C(C)(C)C)[nH]c2-c2ccnc(Nc3ccc4c(c3)OC(F)(F)O4)n2)cnc1N`
### Response 0.0003

### Prompt Indicate the recorded IC50 value for this compound: `CC(=O)Nc1n[nH]c2cc(-c3[nH]c(-c4ccccc4)nc3-c3ccncc3)ccc12`
### Response 0.449
